pKi by entry:
target: human delta receptor (Homo sapiens, UniProt P41143); construct: purchased Perkin Elmer, Boston, Mass; 6110549; host or cells: HEK-293 cells; experiment: radioligand binding, human delta receptor, HEK-293 cell membranes; details: cell not marked (rat), species not given, read-out: δ
Sequence (P41143 whole entry): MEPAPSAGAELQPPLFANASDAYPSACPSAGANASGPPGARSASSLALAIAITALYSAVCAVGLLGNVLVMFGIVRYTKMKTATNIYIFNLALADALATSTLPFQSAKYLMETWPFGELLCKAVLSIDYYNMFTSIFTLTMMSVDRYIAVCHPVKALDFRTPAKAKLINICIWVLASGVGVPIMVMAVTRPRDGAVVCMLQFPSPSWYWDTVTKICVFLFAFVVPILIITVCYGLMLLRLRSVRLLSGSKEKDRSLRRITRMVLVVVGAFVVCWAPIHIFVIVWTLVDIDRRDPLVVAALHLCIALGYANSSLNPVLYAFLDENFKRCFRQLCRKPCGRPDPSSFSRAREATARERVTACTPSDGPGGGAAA
As a rule, pKi stands for the negative log10 of the concentration, concentration in M.

Take a look at these entries with their results.
C=CCN1C[C@H](C)N([C@@H](c2cccc(O)c2)c2cccc(C(=O)N3CCC[C@H]3C(=O)O)c2)C[C@H]1C ... 9.21
C[C@@H]1CN(C(c2cccc(O)c2)c2cccc(C(=O)N3CCCN(CCCC(=O)O)CC3)c2)[C@@H](C)CN1CC1CC1 (some centres unmarked) ... 6.28
C=CCN1C[C@H](C)N([C@@H](c2cccc(O)c2)c2cccc(C(=O)N3CCN(CCCCC(=O)OCC)CC3)c2)C[C@H]1C ... 7.97

# input compound: C=CCN1C[C@H](C)N(C(c2cccc(O)c2)c2cccc(C(=O)N3CCCN(CCCCCCC(=O)OCC)CC3)c2)C[C@H]1C (some centres unmarked) ; wanted: its pKi
8.51

Also check `CCOC(=O)C1CCN(C(=O)c2cccc([C@H](c3cccc(O)c3)N3C[C@@H](C)N(Cc4ccccc4)C[C@@H]3C)c2)CC1`
8.35

Also check CCOC(=O)CCCCCCN1CCCN(C(=O)c2cccc(C(c3cccc(O)c3)N3C[C@@H](C)N(CC4CC4)C[C@@H]3C)c2)CC1 (some centres unmarked)
7.35

Also check C=CCN1C[C@H](C)N(C(c2cccc(O)c2)c2cccc(C(=O)N3CCCN(CCCCCCC(=O)O)CC3)c2)C[C@H]1C (some centres unmarked)
8.25

Also check `C=CCN1C[C@H](C)N([C@@H](c2cccc(O)c2)c2cccc(C(=O)N3CCN(CCCC(=O)O)CC3)c2)C[C@H]1C`
7.60

Also check C=CCN1C[C@H](C)N(C(c2cccc(O)c2)c2cccc(C(=O)N3CCCN(Cc4ccc(C(=O)O)cc4)CC3)c2)C[C@H]1C (some centres unmarked)
9.41

Also check `C[C@@H]1CN([C@@H](c2cccc(O)c2)c2cccc(C(=O)N3CCCN(CCC(=O)O)CC3)c2)[C@@H](C)CN1CC1CC1`
7.16

Also check `COCCN1C[C@H](C)N([C@@H](c2cccc(O)c2)c2cccc(C(=O)N3CCN(Cc4ccc(C(=O)O)cc4)CC3)c2)C[C@H]1C`
7.49

Also check `CCOC(=O)CCCCN1CCN(C(=O)c2cccc([C@H](c3cccc(O)c3)N3C[C@@H](C)N(Cc4ccccc4)C[C@@H]3C)c2)CC1`
8.51

Also check `C=CCN1C[C@H](C)N([C@@H](c2cccc(O)c2)c2cccc(C(=O)N3CCN(CCC(=O)O)CC3)c2)C[C@H]1C`
8.59

Also check C=CCN1C[C@H](C)N(C(c2cccc(O)c2)c2cccc(C(=O)N3CCCN(CCCCCC(=O)OCC)CC3)c2)C[C@H]1C (some centres unmarked)
8.49

====

target: human delta receptor (Homo sapiens, UniProt P41143); construct: 6110549; assay: radioligand binding, human delta receptor, HEK-293 cell membranes; conditions: cell not marked (rat), species not given, read-out: δ
Ki by entry:
Respond with the bare value in µM.

CCOC(=O)CCCCN1CCN(C(=O)c2cccc([C@H](c3cccc(O)c3)N3C[C@@H](C)N(Cc4cccc(F)c4)C[C@@H]3C)c2)CC1 ... 0.0108

# input compound: `C=CCN1C[C@H](C)N([C@@H](c2cccc(O)c2)c2cccc(C(=O)N3CCN(CCCCCC(=O)OCC)CC3)c2)C[C@H]1C` ; wanted: its Ki
0.0054

Also check CCOC(=O)CCCCCN1CCCN(C(=O)c2cccc(C(c3cccc(O)c3)N3C[C@@H](C)N(Cc4ccccc4)C[C@@H]3C)c2)CC1 (stereo partly drawn)
0.0037

Also check `CCOC(=O)CCCN1CCN(C(=O)c2cccc([C@H](c3cccc(O)c3)N3C[C@@H](C)N(CC4CC4)C[C@@H]3C)c2)CC1`
0.402

Also check CCOC(=O)CCCCCCN1CCCN(C(=O)c2cccc(C(c3cccc(O)c3)N3C[C@@H](C)N(Cc4cccc(F)c4)C[C@@H]3C)c2)CC1 (stereo partly drawn)
0.0133

Also check `C=CCN1C[C@H](C)N([C@@H](c2cccc(O)c2)c2cccc(C(=O)N3CCN(CCC(=O)OCC)CC3)c2)C[C@H]1C`
0.00061

Also check C[C@@H]1CN(C(c2cccc(O)c2)c2cccc(C(=O)N3CCCN(CCCCCC(=O)O)CC3)c2)[C@@H](C)CN1Cc1cccc(F)c1 (stereo partly drawn)
0.0251

====

Parameter 'readout' = pKi; parameter 'system' = human mu opioid receptor (Homo sapiens).
Sequence (P35372 whole entry): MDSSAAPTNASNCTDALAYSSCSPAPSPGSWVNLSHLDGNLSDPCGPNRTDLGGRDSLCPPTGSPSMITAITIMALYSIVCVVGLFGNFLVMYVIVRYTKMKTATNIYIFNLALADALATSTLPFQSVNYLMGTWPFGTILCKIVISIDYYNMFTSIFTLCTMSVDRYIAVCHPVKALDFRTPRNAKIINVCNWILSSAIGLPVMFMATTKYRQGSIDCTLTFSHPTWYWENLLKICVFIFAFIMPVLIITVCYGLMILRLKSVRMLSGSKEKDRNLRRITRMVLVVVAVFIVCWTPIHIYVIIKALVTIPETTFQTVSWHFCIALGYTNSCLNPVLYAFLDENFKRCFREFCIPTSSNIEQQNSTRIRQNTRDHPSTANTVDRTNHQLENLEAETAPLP
As a rule, pKi stands for the negative log10 of the concentration, concentration in M.

Take a look at these entries with their results.
C[C@@H]1CN(C(c2cccc(O)c2)c2cccc(C(=O)N3CCCN(CCCCC(=O)O)CC3)c2)[C@@H](C)CN1CC1CC1 (stereo partly shown) ... 6.25
CCOC(=O)CN1CCCN(C(=O)c2cccc(C(c3cccc(O)c3)N3C[C@@H](C)N(CC4CC4)C[C@@H]3C)c2)CC1 (stereo partly shown) ... 8.41
CCOC(=O)CCN1CCCN(C(=O)c2cccc([C@H](c3cccc(O)c3)N3C[C@@H](C)N(CC4CC4)C[C@@H]3C)c2)CC1 ... 8.54
CCOC(=O)CCCCN1CCN(C(=O)c2cccc([C@H](c3cccc(O)c3)N3C[C@@H](C)N(CC4CC4)C[C@@H]3C)c2)CC1 ... 7.63
C=CCN1C[C@H](C)N([C@@H](c2cccc(O)c2)c2cccc(C(=O)N3CCN(CC(=O)O)CC3)c2)C[C@H]1C ... 8.05

# input molecule: C=CCN1C[C@H](C)N(C(c2cccc(O)c2)c2cccc(C(=O)N3CCCN(Cc4ccccc4C(=O)O)CC3)c2)C[C@H]1C (stereo partly shown) ; wanted: its pKi
8.85

====

pKi by entry:
target: human mu opioid receptor (Homo sapiens); construct: purchased Perkin Elmer, Boston, Mass; 6110535; host or cells: CHO cells; assay: radioligand binding, human mu opioid receptor, CHO cell membranes; details: species not given, read-out: μ
As a rule, pKi stands for the negative log10 of the concentration, concentration in M.

Take a look at these entries with their results.
C=CCN1C[C@H](C)N([C@@H](c2cccc(O)c2)c2cccc(C(=O)N3CCN(CC(=O)OCC)CC3)c2)C[C@H]1C ... 9.33
CCOC(=O)CCCCCCN1CCCN(C(=O)c2cccc(C(c3cccc(O)c3)N3C[C@@H](C)N(CC4CC4)C[C@@H]3C)c2)CC1 (some centres unmarked) ... 8.10
C[C@@H]1CN(C(c2cccc(O)c2)c2cccc(C(=O)N3CCCN(CCCCCCC(=O)O)CC3)c2)[C@@H](C)CN1Cc1ccccc1 (some centres unmarked) ... 8.20
C=CCN1C[C@H](C)N([C@@H](c2cccc(O)c2)c2cccc(C(=O)N3CCN(C(=O)OCC)CC3)c2)C[C@H]1C ... 9.10
C[C@@H]1CN(C(c2cccc(O)c2)c2cccc(C(=O)N3CCCN(CCCC(=O)O)CC3)c2)[C@@H](C)CN1CC1CC1 (some centres unmarked) ... 7.58

# input compound: `C[C@@H]1CN([C@@H](c2cccc(O)c2)c2cccc(C(=O)N3CCN(Cc4ccc(C(=O)O)cc4)CC3)c2)[C@@H](C)CN1CC1CC1` ; wanted: its pKi
7.07

Also check `C[C@@H]1CN([C@@H](c2cccc(O)c2)c2cccc(C(=O)N3CCN(CCCC(=O)O)CC3)c2)[C@@H](C)CN1Cc1ccccc1`
8.28

Also check CCOC(=O)CCCCN1CCCN(C(=O)c2cccc(C(c3cccc(O)c3)N3C[C@@H](C)N(CC4CC4)C[C@@H]3C)c2)CC1 (some centres unmarked)
7.52

====

target: human delta receptor (Homo sapiens, UniProt P41143); construct: 6110549; assay: radioligand binding, human delta receptor, HEK-293 cell membranes; conditions: cell not marked (rat), species not given, read-out: δ
Ki by entry:
Respond with the bare value in µM.

C[C@@H]1CN([C@@H](c2cccc(O)c2)c2cccc(C(=O)N3CCN(CCCC(=O)O)CC3)c2)[C@@H](C)CN1CC1CC1 ... 0.0102
C[C@@H]1CN([C@@H](c2cccc(O)c2)c2cccc(C(=O)N3CCN(CCCCCC(=O)O)CC3)c2)[C@@H](C)CN1Cc1cccc(F)c1 ... 0.0157

Next, consider the following molecule.
# input molecule: `CCOC(=O)CCCCN1CCN(C(=O)c2cccc([C@H](c3cccc(O)c3)N3C[C@@H](C)N(CC4CC4)C[C@@H]3C)c2)CC1` ; wanted: its Ki
0.0154

====

molecular target: human delta receptor (Homo sapiens); construct: 6110549; experiment: radioligand binding, human delta receptor, HEK-293 cell membranes; details: cell not marked (rat), species not given, read-out: δ
Rule: Ki below 10 nM gives true, anything at or above gives false.

Here's what some known entries look like.
CCOC(=O)CCCCCN1CCCN(C(=O)c2cccc(C(c3cccc(O)c3)N3C[C@@H](C)N(Cc4cccc(F)c4)C[C@@H]3C)c2)CC1 (some centres unmarked) ... false
C[C@@H]1CN([C@@H](c2cccc(O)c2)c2cccc(C(=O)N3CCCN(CCC(=O)O)CC3)c2)[C@@H](C)CN1Cc1cccc(F)c1 ... true
C[C@@H]1CN([C@@H](c2cccc(O)c2)c2cccc(C(=O)N3CCN(CCCCC(=O)O)CC3)c2)[C@@H](C)CN1CC1CC1 [Example 90] ... false
CCOC(=O)CCCCCN1CCCN(C(=O)c2cccc(C(c3cccc(O)c3)N3C[C@@H](C)N(CC4CC4)C[C@@H]3C)c2)CC1 (some centres unmarked) ... false

Shifting focus to the molecule that follows.
Please indicate whether the reported Ki of C[C@@H]1CN([C@@H](c2cccc(O)c2)c2cccc(C(=O)N3CCN(CCCCCCC(=O)O)CC3)c2)[C@@H](C)CN1Cc1ccccc1 [Example 111] is strictly below 10 nM.
true
